These entries and their values trace back to patent US6737383B1.

What Blackgrass plant response rating was measured for each of the following?
- Test system: blackgrass
- ASSAY COMMENT: Test B pre/postemergence blackgrass
- Type: in vivo, Alopecurus myosuroides
- COND: Preemergence, Rate 250 g/ha; scale of 0 to 10 where 0 is no effect and 10 is complete control
Just the number, please, no unit attached.

Need Blackgrass plant response rating, item CCOC(=O)C=C(Cn1c(=O)on(C(=O)N(c2ccc(F)cc2)C(C)C)c1=O)OCC
3

Need Blackgrass plant response rating, item Cc1ccccc1N(C(=O)n1oc(=O)n(-c2ccccc2C)c1=O)C(C)C
5

Need Blackgrass plant response rating, item CCOc1nc(C(F)(F)F)c(Cn2c(=O)on(C(=O)N(c3ccc(F)cc3)C(C)C)c2=O)s1
0

Need Blackgrass plant response rating, item CCCCc1ccc(N(C(=O)n2oc(=O)n(-c3ccccc3C)c2=O)C(C)C)cc1
0

Need Blackgrass plant response rating, item CC(C)N(C(=O)n1oc(=O)n(C2CCCCCC2)c1=O)c1ccc(F)cc1F
3

Need Blackgrass plant response rating, item C=CCn1c(=O)on(C(=O)N(c2ccc(F)cc2)C2CCCCCC2)c1=O
0

Need Blackgrass plant response rating, item CC(C)N(C(=O)n1oc(=O)n(CC(=O)C(C)(C)C)c1=O)c1ccc(F)cc1
4

Need Blackgrass plant response rating, item CC(C)N(C(=O)n1oc(=O)n(-c2cccnc2)c1=O)c1ccc(F)cc1
0
